molecular target: ASGPR (Homo sapiens); construct: purchased Acro Biosystems; assay: ASGPR binding by fluorescence polarization assay (GalNac-Cy5 probe); conditions: monovalent compounds; 80 nM ASGPR, 1 nM probe, 2 hr incubation; read-out: IC50 (MM)

compound	IC50
CC(=O)N[C@H]1[C@H](OCCCCC(=O)NCCCNC(=O)CCOCC(N)(COCCC(=O)NCCCNC(=O)CCCCO[C@@H]2O[C@H](CO)[C@H](O)[C@H](O)[C@H]2NC(C)=O)COCCC(=O)NCCCNC(=O)CCCCO[C@@H]2O[C@H](CO)[C@H](O)[C@H](O)[C@H]2NC(C)=O)O[C@H](CO)[C@H](O)[C@@H]1O [Compound 18G]	≤ 1 µM
O=C(O)c1cccc(OCc2cn([C@H]3CO[C@H](CO)[C@H](O)[C@@H]3O)nn2)c1	1 to 50 µM
CC(C)(C)C(=O)N[C@H]1CO[C@H](CO)[C@H](O)[C@@H]1O	> 50 µM
OC[C@H]1OC[C@H](Nc2cc(C(F)(F)F)ccn2)[C@@H](O)[C@H]1O	1 to 50 µM
C#CC[C@H]1O[C@H](CO)[C@H](O)[C@H](O)[C@H]1NC(C)=O	1 to 50 µM

----------
Measured pIC50 values are reported for all entries that follow.
molecular target: ASGPR (Homo sapiens, UniProt P07306); construct: purchased Acro Biosystems; test: ASGPR binding by fluorescence polarization assay (GalNac-Cy5 probe); details: trivalent compounds; 80 nM ASGPR, 1 nM probe, 2 hr incubation; read-out: IC50
Sequence (P07306 whole entry): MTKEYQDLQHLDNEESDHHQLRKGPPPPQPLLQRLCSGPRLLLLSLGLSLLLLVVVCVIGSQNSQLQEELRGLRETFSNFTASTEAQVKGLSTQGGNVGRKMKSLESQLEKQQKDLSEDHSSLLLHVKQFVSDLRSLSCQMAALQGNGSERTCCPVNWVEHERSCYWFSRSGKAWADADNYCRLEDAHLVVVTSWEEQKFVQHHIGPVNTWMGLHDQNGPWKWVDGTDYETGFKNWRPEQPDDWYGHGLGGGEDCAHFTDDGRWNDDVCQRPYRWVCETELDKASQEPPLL
pIC50: −log10 of the molar value.
measurement label: pIC50

molecule	study target	measurement label	reported value
CC(=O)N[C@H]1[C@H](OCCCCC(=O)NCCCNC(=O)CCOCC(COCCC(=O)NCCCNC(=O)CCCCO[C@@H]2O[C@H](CO)[C@H](O)[C@H](O)[C@H]2NC(C)=O)(COCCC(=O)NCCCNC(=O)CCCCO[C@@H]2O[C@H](CO)[C@H](O)[C@H](O)[C@H]2NC(C)=O)NC(=O)CCCCCCCCCCC(=O)O)O[C@H](CO)[C@H](O)[C@@H]1O [Compound I-124acid, reference compound]	ASGPR (Homo sapiens, UniProt P07306)	pIC50	< 7.00
O=C(O)CCCCCCCCCCC(=O)NC(CCC(=O)NCCOCCOCCn1cc(COc2nc(N[C@H]3CO[C@H](CO)[C@H](O)[C@@H]3O)cc(C(F)(F)F)n2)nn1)(CCC(=O)NCCOCCOCCn1cc(COc2nc(N[C@H]3CO[C@H](CO)[C@H](O)[C@@H]3O)cc(C(F)(F)F)n2)nn1)CCC(=O)NCCOCCOCCn1cc(COc2nc(N[C@H]3CO[C@H](CO)[C@H](O)[C@@H]3O)cc(C(F)(F)F)n2)nn1 [Compound 1920]	ASGPR (Homo sapiens, UniProt P07306)	pIC50	< 7.00
O=C(O)CCCCCCCCCCC(=O)NC(COCCC(=O)NCCCCNC(=O)c1ccc(OCc2cn([C@H]3CO[C@H](CO)[C@H](O)[C@@H]3O)nn2)cc1)(COCCC(=O)NCCCCNC(=O)c1ccc(OCc2cn([C@H]3CO[C@H](CO)[C@H](O)[C@@H]3O)nn2)cc1)COCCC(=O)NCCCCNC(=O)c1ccc(OCc2cn([C@H]3CO[C@H](CO)[C@H](O)[C@@H]3O)nn2)cc1 [1902 (I-172)]	ASGPR (Homo sapiens, UniProt P07306)	pIC50	≥ 7.30
NC(CCC(=O)NCCOCCOCCOCc1cn([C@H]2[C@H]3OC[C@](CO)(O3)[C@H](O)[C@@H]2O)nn1)(CCC(=O)NCCOCCOCCOCc1cn([C@H]2[C@H]3OC[C@](CO)(O3)[C@H](O)[C@@H]2O)nn1)CCC(=O)NCCOCCOCCOCc1cn([C@H]2[C@H]3OC[C@](CO)(O3)[C@H](O)[C@@H]2O)nn1 [XB40]	ASGPR (Homo sapiens, UniProt P07306)	pIC50	≥ 7.30
O=C(O)CCCCCCCCCCC(=O)NC(COCCC(=O)NCCCCNC(=O)c1cccc(OCc2cn([C@H]3CO[C@H](CO)[C@H](O)[C@@H]3O)nn2)c1)(COCCC(=O)NCCCCNC(=O)c1cccc(OCc2cn([C@H]3CO[C@H](CO)[C@H](O)[C@@H]3O)nn2)c1)COCCC(=O)NCCCCNC(=O)c1cccc(OCc2cn([C@H]3CO[C@H](CO)[C@H](O)[C@@H]3O)nn2)c1 [1901 (I-171)]	ASGPR (Homo sapiens, UniProt P07306)	pIC50	≥ 7.30
CC(=O)N[C@H]1[C@H](OCCCCC(=O)NCCCNC(=O)CCOCC(N)(COCCC(=O)NCCCNC(=O)CCCCO[C@@H]2O[C@H](CO)[C@H](O)[C@H](O)[C@H]2NC(C)=O)COCCC(=O)NCCCNC(=O)CCCCO[C@@H]2O[C@H](CO)[C@H](O)[C@H](O)[C@H]2NC(C)=O)O[C@H](CO)[C@H](O)[C@@H]1O [Compound 18G]	ASGPR (Homo sapiens, UniProt P07306)	pIC50	≥ 7.30
NC(CCC(=O)NCCOCCOCCOCc1cn([C@H]2CO[C@H](CO)[C@H](O)[C@@H]2O)nn1)(CCC(=O)NCCOCCOCCOCc1cn([C@H]2CO[C@H](CO)[C@H](O)[C@@H]2O)nn1)CCC(=O)NCCOCCOCCOCc1cn([C@H]2CO[C@H](CO)[C@H](O)[C@@H]2O)nn1 [XB32]	ASGPR (Homo sapiens, UniProt P07306)	pIC50	7.00 to 7.30
